Assay: gradient 5% acetonitrile 3 min, to 50% in 2 min, to 85% in 15 min, held 3 min, 100 µL/min
Conditions: column: Zorbax Extend-C18 2.1 x 50 mm; eluents: water / acetonitrile, 0.1% formic acid
RECORDED_ENDPOINT: RP-LC retention time (s)
Response body: numeric value in s, unit text excluded.

Solved entries:
COc1ccc(-c2nn3c(-c4cc(C(C)C)[nH]n4)nnc3s2)c(OC)c1
915
CCS(=O)(=O)N1CCc2nn(Cc3ccccc3)c(=O)n2CC1
687
COc1ccc(S(=O)(=O)Cc2nc(-c3ccccc3Cl)no2)cc1
966
COC(=O)c1cc(S(=O)(=O)N2CCCC2C(=O)NC2CCCCCC2)cn1C (stereo unspecified)
881
Cc1ccccc1-n1ncc2c(NCc3ccco3)ncnc21
708

Give its RP-LC retention time value. Item: CCCNC(=O)C1CCN(c2ccc(SCC(=O)Nc3cccc(Cl)c3C)nn2)CC1
678

CCN1CCn2cc(S(=O)(=O)Nc3ccc(Cl)cc3F)cc2C1=O , same question.
752

What about this compound? O=S(=O)(Nc1ccc(Cn2cncn2)cc1)c1ccc2c(c1)CCCC2
786

Subsequent entry: COc1ccccc1N1CCN(c2cc(SCC(=O)Nc3cccc(C#N)c3)ncn2)CC1
895

Follow-up entry: Cc1cccc2nnc(N3CCC(C(=O)NCc4ccc(N5CCCCC5)cc4)CC3)n12
558

Request: CN(C)c1cc(-n2cccn2)ncn1
666

Item: Cc1cc(C)cc(NC(=O)C2CCN(S(=O)(=O)c3cc(-c4noc(C5CC5)n4)cs3)CC2)c1
1020

These data points were gathered from the METLIN SMRT retention time set (Domingo-Almenara et al. 2019).
